Target system: UniProt P29990
Test summary: Inhibition of DENV-2 NS2B-NS3 protease at 50 uM by biochemical enzymatic assay relative to control
This section presents compounds with their documented inhibition values.
Give the quantity in %, number only.

Completed entries (count: 5):
> print(dat)
                                chem.smiles   target.system  test.value
1  CN([C@@H](Cc1ccc(C(=N)N)cc1)C(=O)N[C@@H](CCCCN)C(=O)N[C@@H](C(N)=O)c1ccc(OCc2ccccc2)cc1)S(=O)(=O)c1ccccc1  UniProt P29990          99
2  CN([C@@H](Cc1ccc(C(=N)N)cc1)C(=O)N[C@@H](CCCCN)C(=O)N[C@H](C(N)=O)c1ccc(OCc2ccccc2)cc1)S(=O)(=O)c1ccccc1  UniProt P29990         102
3  N=C(N)NCCC[C@H](NS(=O)(=O)c1ccc(Cl)cc1)C(=O)N[C@@H](CCCCN)C(=O)N[C@@H](C(N)=O)c1ccccc1  UniProt P29990        44.5
4  CN([C@@H](Cc1ccc(NC(=N)N)cc1)C(=O)N[C@@H](CCCCN)C(=O)N[C@@H](C(N)=O)c1ccccc1)S(=O)(=O)c1ccccc1  UniProt P29990        97.6
5  CN([C@@H](Cc1ccc(C(=N)N)cc1)C(=O)N[C@@H](CCCCN)C(=O)N[C@@H](C(N)=O)c1ccc(OCc2ccc(Cl)c(Cl)c2)cc1)S(=O)(=O)c1ccccc1  UniProt P29990        98.6

Req: Report measured inhibition; entry is CN([C@@H](Cc1ccc(C(=N)N)cc1)C(=O)N[C@@H](CCCCN)C(=O)N[C@@H](C(N)=O)c1ccc(OCc2ccc(C(F)(F)F)cc2)cc1)S(=O)(=O)c1ccccc1
Resp: 99.2

====

The following compounds are listed with their measured inhibition values.
Target system: Genome polyprotein (dengue virus type 2)
Test summary: Inhibition of DENV-2 NS2B-NS3 protease at 50 uM by biochemical enzymatic assay relative to control
The response must be a number in % with no trailing unit.

Req: Using known records, supply inhibition for Cc1ccc(S(=O)(=O)N[C@@H](CCCNC(=N)N)C(=O)N[C@@H](CCCCN)C(=O)N[C@@H](C(N)=O)c2ccccc2)cc1
Resp: 50.5

Req: Return reported inhibition. Input compound: Cc1ccc(S(=O)(=O)N(C)[C@@H](CCCNC(=N)N)C(=O)N[C@@H](CCCCN)C(=O)N[C@@H](C(N)=O)c2ccccc2)cc1
Resp: 75.8

Req: Read off the recorded inhibition for CN([C@@H](CCCNC(=N)N)C(=O)N[C@@H](CCCCN)C(=O)N[C@@H](C(N)=O)c1ccccc1)S(=O)(=O)c1ccc(Cl)cc1
Resp: 75.1

Req: Fill in inhibition for record Cc1ccc(S(=O)(=O)N(C)[C@@H](Cc2cccc(N)c2)C(=O)N[C@@H](CCCCN)C(=O)N[C@@H](C(N)=O)c2ccccc2)cc1
Resp: 23.2

Req: Read off the recorded inhibition for CC(C)c1cc(C(C)C)c(S(=O)(=O)N[C@@H](CCCNC(=N)N)C(=O)N[C@@H](CCCCN)C(=O)N[C@@H](C(N)=O)c2ccccc2)c(C(C)C)c1
Resp: 20.2

Req: Could you please provide reported inhibition for Cc1cc(C)c(S(=O)(=O)N[C@@H](CCCNC(=N)N)C(=O)N[C@@H](CCCCN)C(=O)N[C@@H](C(N)=O)c2ccccc2)c(C)c1 ? Thanks!
Resp: 35.9
